Study system: Dickkopf-related protein 1 (Homo sapiens)
Assay comment: DKK1 binders on small-molecule microarrays, primary screen, biochemical, small-molecule microarray, 635 nm fluorescence scan (AID 1106);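 further: score merges emission near 667 nm with signal to noise over three replicate slides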
Settings: DKK1 binding, higher = more signal
Measured metric: composite z-score

molecule=COC(=O)[C@@]1(Cc2ccccc2N=[N+]=[N-])N=C(c2ccc(OCCCO)cc2)O[C@H]1c1ccccc1N=[N+]=[N-] meas_value=0.0345
molecule=O[C@@H](Cc1ccccc1)[C@@H](/C=C/C1CC1)N(CC#Cc1ccccc1)Cc1cccc(Cl)c1 meas_value=-1.49
molecule=COc1ccc([Si](C)(C)[C@@H]2[C@@H](CC(=O)N(CCO)Cc3ccccc3)O[C@]3(C(=O)N(Cc4cccc(N5C(=O)c6cccc7cccc5c67)c4)c4ccccc43)[C@H]2C)cc1 meas_value=0.816
molecule=Cc1ccc(S[C@]2(C(=O)NCC(F)(F)F)CC(=O)N(Cc3ccccc3)[C@@H]2c2ccc(CO)cc2I)cc1 meas_value=-0.813
molecule=CC(C)Cc1ccc(CN2CC[C@@H](NC(=O)Nc3ccccc3)C2)cc1 meas_value=0.238
molecule=Cc1ccc(S[C@]2(C(=O)NCCCN(C)C)CC(=O)N(C3CCCCC3)[C@@H]2c2ccc(CO)cc2)cc1 meas_value=-0.774
molecule="CCC(CC)C(O)C1C=CC2C(=O)N(c3ccccc3)C(=O)C2N1Nc1ccc(C(C)C)cc1 (stereo unspecified)" meas_value=-0.0563
molecule="CN1C(=O)C2C=CC(C(O)c3cccc(O)c3)N(Nc3ccccc3)C2C1=O (stereo unspecified)" meas_value=-0.208
molecule=CCOC(=O)[C@H]1[C@@H]2C(=O)N3CCC[C@H]3[C@H](O[Si](C(C)C)(C(C)C)C(C)C)[C@H]2C=C2CCN(S(=O)(=O)c3ccc(C)cc3)C[C@H]21 meas_value=0.593
molecule=C=C(CCCC)/C(=C/C[C@@H](OC(=O)c1ccncc1)c1ccccc1OCCO)c1cnc2ccccc2c1 meas_value=0.736
molecule="C=C(C)C1CCC(C(O)C2C=CC3C(=O)N(C)C(=O)C3N2N2CCCCC2)CC1 (stereo unspecified)" meas_value=0.986
molecule=COc1ccc(CN(C2=CC[C@@]3(C(N)=O)C(=O)C(Cl)=C(Cl)C(=O)[C@@]3(C#N)C2)S(=O)(=O)c2ccc(Br)cc2)cc1 meas_value=-1.28
molecule=CCOC(=O)C[C@H]1[C@H](OC(=O)c2ccc(C(=O)c3ccccc3)cc2)[C@@H](NC(=O)Cc2ccc(OC)cc2)c2cc(OCCCO)ccc2N1C(=O)c1ccccc1 meas_value=0.0251
molecule=COc1ccc([Si](C)(C)[C@@H]2[C@@H](CC(=O)N3Cc4ccccc4C[C@H]3CO)O[C@]3(C(=O)N(Cc4cccc(N5C(=O)c6cccc7cccc5c67)c4)c4ccccc43)[C@H]2C)cc1 meas_value=1.43
molecule="CC(C)(C)OC(=O)CC[C@]1(C(=O)NCC(O)CO)N=C(c2ccc(OCCCO)cc2)O[C@H]1c1ccccc1 (stereo partly specified)" meas_value=-1.09
molecule=COCC1=C2[C@@H](CCc3ccccc3)OB(O)C[C@@H]2[C@@H]2C(=O)C=CC(=O)[C@@H]2C1 meas_value=0.489
molecule="Cc1cc(C)c(C(O)C2C=CC3C(=O)N(c4ccccc4)C(=O)C3N2Nc2ccc(C(C)C)cc2)c(C)c1 (stereo unspecified)" meas_value=-0.0403
molecule=COc1cc(CO)cc(I)c1O[C@H]1C=C(C(=O)NCCO)C[C@@H](NCc2ccc(F)cc2)[C@@H]1O meas_value=0.978
molecule=Cc1ccc(S[C@]2(C(=O)O)CC(=O)N(Cc3cc(C(F)(F)F)cc(C(F)(F)F)c3)[C@@H]2c2ccc(CO)cc2)cc1 meas_value=-2.26
molecule=CC1=C([C@H](O)CCc2ccccc2)[C@H](CO)[C@@H]2C(=O)N(C)C(=O)[C@@H]2C1 meas_value=0.446
molecule="CC(CO)N1C(=O)[C@@H]2[C@H]3C(=O)OCC=C[C@H]3OC23C=CCN(C(C)(C)C)C(=O)[C@@H]13 (stereo partly specified)" meas_value=-0.496
molecule=Cc1ccc(S[C@]2(C(=O)NCC(F)(F)F)CC(=O)N(C3CCCCC3)[C@@H]2c2ccc(CO)cc2I)cc1 meas_value=0.133
molecule=C=C(COC)C(=O)CC[C@@H](OC(=O)c1cccnc1)c1ccc(OCCO)cc1 meas_value=0.922
molecule="NC(=O)N1C(=O)C2C(C1=O)C1C=C(CCCO)C2C(c2cccs2)N1Cc1cccc(OC(F)(F)F)c1 (stereo unspecified)" meas_value=-0.184
molecule=COC(=O)[C@@]1(Cc2ccccc2)[C@H]2c3cc(C(=O)N(C)C)n(CCN4CNCC4=O)c3C[C@H]2CN1C(=O)c1ccccc1 meas_value=-1.59
molecule=[N-]=[N+]=Nc1ccccc1C[C@]1(C(=O)N2CCOCC2)N=C(c2ccc(OCCCO)cc2)O[C@H]1c1ccccc1 meas_value=1.93
molecule="Cc1ccccc1C(O)C1C=CC2C(=O)N(C)C(=O)C2N1N(c1ccccc1)c1ccccc1 (stereo unspecified)" meas_value=0.119
molecule=CCCCC=C[C@@H](NC(=O)c1ccc(-c2ccccc2)cc1)c1ccccc1 meas_value=0.381
molecule="O=C1OCCC/C=C\\[C@H]2OC34C=CCN(CCN5CCOCC5)C(=O)[C@H]3N(CCCCCCO)C(=O)[C@@H]4C12 (stereo partly specified)" meas_value=-0.528
molecule=COc1ccc([Si](C)(C)[C@@H]2[C@@H](CC(=O)N3Cc4ccccc4C[C@H]3CO)O[C@]3(C(=O)N(C)c4ccccc43)[C@H]2C)cc1 meas_value=0.874
molecule=C=CCN1C(=O)[C@@]2(CCS(=O)(=O)c3ccccc3)N=C(c3ccc(OCCCO)cc3)O[C@H]2c2ccccc21 meas_value=0.822
